Entry source: patent US10988477B2

ASSAY_SYSTEM: GCN2 kinase (Homo sapiens, UniProt Q9P2K8)
Sequence (Q9P2K8 whole entry): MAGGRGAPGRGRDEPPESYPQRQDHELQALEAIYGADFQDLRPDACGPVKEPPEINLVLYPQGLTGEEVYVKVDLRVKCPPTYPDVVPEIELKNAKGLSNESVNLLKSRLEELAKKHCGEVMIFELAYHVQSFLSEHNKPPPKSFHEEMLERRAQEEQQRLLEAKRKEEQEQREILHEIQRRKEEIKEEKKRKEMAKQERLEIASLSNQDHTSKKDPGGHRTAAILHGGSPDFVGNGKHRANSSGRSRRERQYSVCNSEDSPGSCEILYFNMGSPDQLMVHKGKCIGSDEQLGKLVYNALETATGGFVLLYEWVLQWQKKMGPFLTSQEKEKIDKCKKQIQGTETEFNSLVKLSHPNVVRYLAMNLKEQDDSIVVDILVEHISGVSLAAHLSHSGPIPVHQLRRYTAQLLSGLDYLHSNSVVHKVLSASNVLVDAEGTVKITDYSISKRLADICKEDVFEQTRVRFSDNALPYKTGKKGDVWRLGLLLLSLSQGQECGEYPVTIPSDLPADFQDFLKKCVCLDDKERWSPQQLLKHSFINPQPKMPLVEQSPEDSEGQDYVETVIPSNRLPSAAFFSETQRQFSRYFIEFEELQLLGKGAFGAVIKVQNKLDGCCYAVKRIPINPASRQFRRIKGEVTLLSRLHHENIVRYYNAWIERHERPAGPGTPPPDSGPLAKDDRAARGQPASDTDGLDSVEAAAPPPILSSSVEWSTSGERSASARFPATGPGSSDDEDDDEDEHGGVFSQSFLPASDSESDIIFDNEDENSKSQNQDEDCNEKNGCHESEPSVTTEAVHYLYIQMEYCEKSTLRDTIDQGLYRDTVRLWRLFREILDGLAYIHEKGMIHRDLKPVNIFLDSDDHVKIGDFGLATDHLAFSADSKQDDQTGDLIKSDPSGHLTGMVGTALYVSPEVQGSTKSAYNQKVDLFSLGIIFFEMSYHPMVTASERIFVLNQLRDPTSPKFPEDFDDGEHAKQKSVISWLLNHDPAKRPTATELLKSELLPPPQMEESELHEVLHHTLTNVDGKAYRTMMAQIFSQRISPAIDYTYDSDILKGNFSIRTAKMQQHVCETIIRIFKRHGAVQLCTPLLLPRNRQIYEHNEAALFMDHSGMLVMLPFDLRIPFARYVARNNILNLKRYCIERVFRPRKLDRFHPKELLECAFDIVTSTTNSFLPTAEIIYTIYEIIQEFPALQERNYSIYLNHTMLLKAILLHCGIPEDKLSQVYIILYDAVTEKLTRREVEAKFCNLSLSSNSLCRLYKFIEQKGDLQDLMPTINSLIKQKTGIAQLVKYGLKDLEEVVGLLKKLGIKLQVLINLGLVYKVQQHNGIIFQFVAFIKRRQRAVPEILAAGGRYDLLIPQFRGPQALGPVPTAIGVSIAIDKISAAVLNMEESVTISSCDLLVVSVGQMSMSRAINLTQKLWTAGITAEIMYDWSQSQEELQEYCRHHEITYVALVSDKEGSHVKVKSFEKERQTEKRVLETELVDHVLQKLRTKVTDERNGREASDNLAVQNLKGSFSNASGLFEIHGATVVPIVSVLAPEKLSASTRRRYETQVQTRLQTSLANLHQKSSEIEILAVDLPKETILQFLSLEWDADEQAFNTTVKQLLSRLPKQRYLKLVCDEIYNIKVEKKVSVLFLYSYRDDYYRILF
ASSAY_REMARKS: GCN2 enzyme inhibition assay (Transcreener ADP2 fluorescence polarization)
Format: biochemical
APPLIED_CONDITIONS: compounds of Formula II; 280 μM ATP, 4 nM GCN2 kinase
READOUT_NAME: Ki

Worked examples follow.
# MOLECULE, ASSAY_SYSTEM, READOUT_NAME, RESULT
rows = [
    ("CS(=O)(=O)N1CCCC(c2cc(-c3cnc4ccc(C(F)F)nn34)ncn2)CC1 (single isomer, unassigned) [II-276]", "GCN2 kinase (Homo sapiens, UniProt Q9P2K8)", "Ki", "10 to 1000 nM"),
    ("CC1C(NS(C)(=O)=O)CCCN1c1cc(-c2cnc3ccc(C(F)F)nn23)ncn1 (centres unmarked) [II-602]", "GCN2 kinase (Homo sapiens, UniProt Q9P2K8)", "Ki", "< 10 nM"),
    ("CC1C(CCO)N(C)CCN1c1cc(-c2cnc3ccc(C(F)F)nn23)ncn1 (centres unmarked)", "GCN2 kinase (Homo sapiens, UniProt Q9P2K8)", "Ki", "10 to 1000 nM"),
    ("FC(F)c1ccc2ncc(-c3ccnc(N4CCCNCC4)c3)n2n1", "GCN2 kinase (Homo sapiens, UniProt Q9P2K8)", "Ki", "10 to 1000 nM"),
    ("CS(=O)(=O)NCC1CN(c2cc(-c3cnc4ccc(C(F)F)nn34)ncn2)CCC1O (centres unmarked)", "GCN2 kinase (Homo sapiens, UniProt Q9P2K8)", "Ki", "< 10 nM"),
    ("OC[C@H]1CCCN(c2cc(-c3cnc4ccc(C(F)(F)F)nn34)ncn2)C1", "GCN2 kinase (Homo sapiens, UniProt Q9P2K8)", "Ki", "10 to 1000 nM"),
    ("CS(C)(=O)=NC1CCCN(c2cc(-c3cnc4ccc(C(F)F)nn34)ncn2)C1 (single isomer, unassigned) [II-503]", "GCN2 kinase (Homo sapiens, UniProt Q9P2K8)", "Ki", "10 to 1000 nM"),
    ("NS(=O)(=O)N1CCCC2(CN(c3cc(-c4cnc5ccc(C(F)F)nn45)ncn3)C2)C1", "GCN2 kinase (Homo sapiens, UniProt Q9P2K8)", "Ki", "10 to 1000 nM"),
]

Incoming: Entry CC1(C)CN(c2cc(-c3cnc4ccc(C(F)F)nn34)ncn2)CC(CNS(C)(=O)=O)N1 (centres unmarked) [II-567] : reported Ki = ?
Outgoing: 10 to 1000 nM

Incoming: Entry CS(=O)(=O)NCC1CCCN(c2cc(-c3cnc4ccc(C(F)F)nn34)cc(N3CC(O)C3)n2)C1 (centres unmarked) : reported Ki = ?
Outgoing: < 10 nM

Incoming: Entry CC1C(CNS(C)(=O)=O)N(C2CC2)CCN1c1cc(-c2cnc3ccc(C(F)F)nn23)ncn1 (single isomer, unassigned) [II-478] : reported Ki = ?
Outgoing: 10 to 1000 nM

Incoming: Entry CS(=N)(=O)CC1CCCN(c2cc(-c3cnc4ccc(C(F)F)nn34)ncn2)C1 (single isomer, unassigned) [II-639] : reported Ki = ?
Outgoing: 10 to 1000 nM

Incoming: Entry O=C1NCC2CN(c3cc(-c4cnc5ccc(C(F)F)nn45)ccn3)CCN12 (centres unmarked) [II-175] : reported Ki = ?
Outgoing: 10 to 1000 nM

Incoming: Entry C[C@H]1CN(c2cc(-c3cnc4ccc(C(C)(F)F)nn34)ncn2)C[C@@H](CNS(C)(=O)=O)C1(F)F : reported Ki = ?
Outgoing: 10 to 1000 nM

Incoming: Entry CC1CCC(N=S(C)(C)=O)CN1c1cc(-c2cnc3ccc(C(F)F)nn23)ncn1 (centres unmarked) [II-697] : reported Ki = ?
Outgoing: > 1000 nM

Incoming: Entry CC1C(c2cn[nH]c2)NCCN1c1cc(-c2cnc3ccc(C(F)(F)F)nn23)ncn1 (centres unmarked) : reported Ki = ?
Outgoing: 10 to 1000 nM

Incoming: Entry NC(=O)CCC1CCCN(c2cc(-c3cnc4ccc(C(F)F)nn34)ncn2)C1 (centres unmarked) : reported Ki = ?
Outgoing: 10 to 1000 nM

====

// reported Ki per item
ASSAY_SYSTEM: GCN2 kinase (Homo sapiens, UniProt Q9P2K8)
ASSAY_REMARKS: GCN2 enzyme inhibition assay (Transcreener ADP2 fluorescence polarization)
Format: biochemical
APPLIED_CONDITIONS: Enzyme activity for compounds of Formula IV; Ki(app), 280 μM ATP, 25° C.

# COMPOUND, Ki
data = [
    ("CP(C)(=O)C1CC(c2cn[nH]c2)CN(c2ccnc(-c3cnc4cnc(C(F)(F)F)cn34)n2)C1 (single isomer, unassigned) [IV-632]", "10 to 100 nM"),
]

Incoming: Entry FC(F)(F)c1cn2c(-c3nccc(N4CCC(Cc5cn[nH]c5)C4)n3)cnc2cn1 (stereo not shown) : reported Ki = ?
Outgoing: 10 to 100 nM

Incoming: Entry CS(=O)(=O)NC[C@@H]1CN(c2nc(-c3cnc4cnc(C(F)F)cn34)ns2)CCO1 : reported Ki = ?
Outgoing: 100 to 1000 nM

Incoming: Entry O=C1CCCC2CN(c3ccnc(-c4cnc5cnc(Cl)cn45)n3)CCN12 (stereo not shown) [IV-286] : reported Ki = ?
Outgoing: 10 to 100 nM

====

// reported Ki per item
ASSAY_SYSTEM: GCN2 kinase (Homo sapiens, UniProt Q9P2K8)
ASSAY_REMARKS: GCN2 enzyme inhibition assay (Transcreener ADP2 fluorescence polarization)
Assay type: biochemical
APPLIED_CONDITIONS: Enzyme activity for compounds of Formula IV; Ki(app), 280 μM ATP, 25° C.

Worked examples follow.
# COMPOUND, Ki
records = [
    ("CCN1CCN(c2ccnc(-c3cnc4cnc(Br)cn34)n2)[C@@H](C)[C@H]1c1cn[nH]c1 (relative stereo) [IV-390]", "< 10 nM"),
    ("CC1C(c2cn[nH]c2)CCCN1c1ccnc(-c2cnc3cnc(C(F)(F)F)cn23)n1 (stereo not drawn) [IV-388]", "< 10 nM"),
    ("Cc1cc(N2CCC(c3cn[nH]c3)C2)nc(-c2cnc3cnc(C(F)(F)F)cn23)n1 (stereo not drawn)", "10 to 100 nM"),
    ("O=C(N[C@H]1CCCN(c2ccnc(-c3cnc4cnc(C(F)(F)F)cn34)n2)C1)c1c[nH]cn1", "> 1000 nM"),
    ("Brc1cn2c(-c3nccc(N4CCNC(c5cn[nH]c5)C4)n3)cnc2cn1 (stereo not drawn)", "10 to 100 nM"),
    ("FC(F)(F)c1cn2c(-c3nccc(N4CCC(c5c[nH]nc5C(F)(F)F)C4)n3)cnc2cn1 (stereo not drawn) [IV-572]", "< 10 nM"),
]

Incoming: Item: CCN1CCN(c2ccnc(-c3cnc4cnc(Br)cn34)n2)[C@@H](C)[C@H]1c1cn[nH]c1 (single isomer, unassigned) [IV-402] Test system: GCN2 kinase (Homo sapiens, UniProt Q9P2K8) Read-out: Ki Value: ?
Outgoing: < 10 nM

Incoming: Item: Fc1n[nH]cc1C1CCN(c2ccnc(-c3cnc4cnc(C(F)(F)F)cn34)n2)C1 (stereo not drawn) [IV-524] Test system: GCN2 kinase (Homo sapiens, UniProt Q9P2K8) Read-out: Ki Value: ?
Outgoing: < 10 nM

Incoming: Item: CC1CN(c2ccnc(-c3cnc4cnc(Br)cn34)n2)CC(c2cn[nH]c2)N1 (single isomer, unassigned) [IV-365] Test system: GCN2 kinase (Homo sapiens, UniProt Q9P2K8) Read-out: Ki Value: ?
Outgoing: < 10 nM

Incoming: Item: CS(=O)(=O)NCC1CCCN(c2ccnc(-c3cnc4cnc(C(F)F)cn34)n2)C1 (stereo not drawn) Test system: GCN2 kinase (Homo sapiens, UniProt Q9P2K8) Read-out: Ki Value: ?
Outgoing: 100 to 1000 nM

Incoming: Item: FC(F)(F)c1cn2c(-c3nccc(N4CCC(c5cn[nH]c5)C4)n3)cnc2cn1 (stereo not drawn) [IV-494] Test system: GCN2 kinase (Homo sapiens, UniProt Q9P2K8) Read-out: Ki Value: ?
Outgoing: 10 to 100 nM

====

ASSAY_SYSTEM: intracellular GCN2 (phosphorylation of the GCN2 substrate eIF2α) (Homo sapiens, UniProt Q9P2K8)
ASSAY_REMARKS: GCN2 cellular inhibition assay (AlphaScreen SureFire P-eIF2α Ser51, borrelidin-treated U2OS cells)
Format: cell-based
APPLIED_CONDITIONS: compounds of Formula II; biomarker assay, phosphorylated eIF2α Ser51 in borrelidin-treated U2OS cells
// reported IC50 per item

# MOLECULE, RESULT
records = [
    ("CC1C(CS(C)(=O)=O)OCCN1c1cc(-c2cnc3ccc(C(F)F)nn23)ncn1 (stereo not shown)", "500 to 5000 nM"),
]

Incoming: Entry CC1C(CNS(C)(=O)=O)C(F)(F)CCN1c1cc(-c2cnc3ccc(C(F)F)nn23)ncn1 (single isomer, unassigned) [II-303] : reported IC50 = ?
Outgoing: 500 to 5000 nM

Incoming: Entry Cc1[nH]ncc1[C@@H]1CN(c2cc(-c3cnc4ccc(C(F)(F)F)nn34)ncn2)C[C@H](C)O1 : reported IC50 = ?
Outgoing: < 500 nM

Incoming: Entry FC(F)c1ccc2ncc(-c3cc(N4Cc5ccncc5C4)ncn3)n2n1 : reported IC50 = ?
Outgoing: < 500 nM
